Biological target: Alpha-glucosidase (Saccharomyces cerevisiae S288c, UniProt P53341+P38158+P07265)
Assay: Inhibition of Saccharomyces cerevisiae Alpha-glucosidase using p-NPG as substrate and measured after 10 mins
Assay type: protein assay
measured.attribute: IC50 (µM)

Below are worked cases with known answers.
FC(F)(F)c1ccc(CSc2nnc(-c3cc4c([nH]c5ccccc54)c(-c4ccccc4)n3)o2)cc1; 8.48
Clc1ccccc1CSc1nnc(-c2cc3c([nH]c4ccccc43)c(-c3ccccc3)n2)o1; 5.46

a = FC(F)(F)Oc1ccc(CSc2nnc(-c3cc4c([nH]c5ccccc54)c(-c4ccccc4)n3)o2)cc1
b = FC(F)(F)c1ccccc1CSc1nnc(-c2cc3c([nH]c4ccccc43)c(-c3ccccc3)n2)o1
Query: Looking at recorded values for IC50, does a or b come in lower? Answer format: the label of the selected item.
Response: a
